Tested on: Bacillus subtilis
method.notes: Antibacterial activity against Bacillus subtilis at 50 ug after 18 hr by Kirby-Bauer's disk diffusion assay
Type: functional
run.parameters: read-out: DIZ
Exercise: for every item that follows, state its recorded zone of inhibition at 50 µg/disc.
Response body: numeric value in mm, unit text excluded.

Task: Tell me measured zone of inhibition at 50 µg/disc for CCCCCCNCc1nn2c(=O)c3cnn(-c4ccccc4)c3nc2s1 please.
Result: 20.5

Task: Tell me measured zone of inhibition at 50 µg/disc for O=c1c2cnn(-c3ccccc3)c2nc2sc(CN3CCOCC3)nn12 please.
Result: 7

Task: Tell me measured zone of inhibition at 50 µg/disc for CC1(C)S[C@@H]2[C@H](NC(=O)[C@H](N)c3ccccc3)C(=O)N2[C@H]1C(=O)O please.
Result: 23.3

Task: Tell me measured zone of inhibition at 50 µg/disc for O=c1c2cnn(-c3ccccc3)c2nc2sc(CNc3ccccc3)nn12 please.
Result: 14

Task: Tell me measured zone of inhibition at 50 µg/disc for COc1ccc(NCc2nn3c(=O)c4cnn(-c5ccccc5)c4nc3s2)cc1 please.
Result: 15.5

Task: Tell me measured zone of inhibition at 50 µg/disc for O=c1c2cnn(-c3ccccc3)c2nc2sc(CNCc3ccco3)nn12 please.
Result: 18.5

Task: Tell me measured zone of inhibition at 50 µg/disc for CCNCc1nn2c(=O)c3cnn(-c4ccccc4)c3nc2s1 please.
Result: 16

Task: Tell me measured zone of inhibition at 50 µg/disc for CNCc1nn2c(=O)c3cnn(-c4ccccc4)c3nc2s1 please.
Result: 6.5

Task: Tell me measured zone of inhibition at 50 µg/disc for Cc1cccc(NCc2nn3c(=O)c4cnn(-c5ccccc5)c4nc3s2)c1 please.
Result: 17

---

Tested on: Staphylococcus aureus
method.notes: Antibacterial activity against Staphylococcus aureus at 50 ug after 18 hr by Kirby-Bauer's disk diffusion assay
Type: functional
run.parameters: read-out: DIZ
Exercise: for every item that follows, state its recorded zone of inhibition at 50 µg/disc.
Response body: numeric value in mm, unit text excluded.

Task: Tell me measured zone of inhibition at 50 µg/disc for CC1(C)S[C@@H]2[C@H](NC(=O)[C@H](N)c3ccccc3)C(=O)N2[C@H]1C(=O)O please.
Result: 22.5

Task: Tell me measured zone of inhibition at 50 µg/disc for O=c1c2cnn(-c3ccccc3)c2nc2sc(CNCc3ccco3)nn12 please.
Result: 20

Task: Tell me measured zone of inhibition at 50 µg/disc for Cc1cccc(NCc2nn3c(=O)c4cnn(-c5ccccc5)c4nc3s2)c1 please.
Result: 16.5

Task: Tell me measured zone of inhibition at 50 µg/disc for CCNCc1nn2c(=O)c3cnn(-c4ccccc4)c3nc2s1 please.
Result: 18.5

Task: Tell me measured zone of inhibition at 50 µg/disc for CCCCCCNCc1nn2c(=O)c3cnn(-c4ccccc4)c3nc2s1 please.
Result: 17.5

Task: Tell me measured zone of inhibition at 50 µg/disc for COc1ccc(NCc2nn3c(=O)c4cnn(-c5ccccc5)c4nc3s2)cc1 please.
Result: 15.5

Task: Tell me measured zone of inhibition at 50 µg/disc for O=c1c2cnn(-c3ccccc3)c2nc2sc(CNc3ccccc3)nn12 please.
Result: 14.5

Task: Tell me measured zone of inhibition at 50 µg/disc for CNCc1nn2c(=O)c3cnn(-c4ccccc4)c3nc2s1 please.
Result: 13.5

Task: Tell me measured zone of inhibition at 50 µg/disc for O=c1c2cnn(-c3ccccc3)c2nc2sc(CN3CCOCC3)nn12 please.
Result: 7.5
